- target-desc: T1, recombinant human HER3 (human, UniProt P21860 20-643)
- T1 construct: Bought reagent
- assay-procedure: SPR (Biacore T200), HER3 captured via anti-His, Fab analyte;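 also: single cycle kinetics with five Fab concentrations, referenced against a blank flow cell and mock-buffer injections, sensorgrams fit to a 1:1 binding model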
readout-label: Kd (nM)
Field format: number, assumed nM, no unit text.

See these solved cases before continuing.
1) H3 designed Vlambda-Ckappa chimeric Fab, design 14 (E83F) (Fab, name in Kabat numbering, V domains shown) VH: QVQLQESGGGLVKPGGSLRLSCAASGFTFSSYWMSWVRQAPGKGLEWVANINRDGSASYYVDSVKGRFTISRDDAKNSLYLQMNSLRAEDTAVYYCARDRGVGYFDLWGRGTLVTVSS VL: QSALTQPASVSGSPGQSITISCTGTSSDVGGYNFVSWYQQHPGKAPKLMIYDVSDRPSGVSDRFSGSKSGNTASLIISGLQADDFADYYCSSYGSSSTHVIFGGGTKVTVLR = 92.6
2) H3 designed Vlambda-Ckappa chimeric Fab, design 25 (E83V_V106I) (Fab, name in Kabat numbering, V domains shown) VH: QVQLQESGGGLVKPGGSLRLSCAASGFTFSSYWMSWVRQAPGKGLEWVANINRDGSASYYVDSVKGRFTISRDDAKNSLYLQMNSLRAEDTAVYYCARDRGVGYFDLWGRGTLVTVSS VL: QSALTQPASVSGSPGQSITISCTGTSSDVGGYNFVSWYQQHPGKAPKLMIYDVSDRPSGVSDRFSGSKSGNTASLIISGLQADDVADYYCSSYGSSSTHVIFGGGTKVTILR = 80.6
3) H3 designed Vlambda-Ckappa chimeric Fab, design 28 (E83V_D85V_T105E) (Fab, name in Kabat numbering, V domains shown) VH: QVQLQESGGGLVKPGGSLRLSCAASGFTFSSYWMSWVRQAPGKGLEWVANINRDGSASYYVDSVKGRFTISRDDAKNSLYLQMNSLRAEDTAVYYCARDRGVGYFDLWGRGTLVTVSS VL: QSALTQPASVSGSPGQSITISCTGTSSDVGGYNFVSWYQQHPGKAPKLMIYDVSDRPSGVSDRFSGSKSGNTASLIISGLQADDVAVYYCSSYGSSSTHVIFGGGTKVEVLR = 89.2
4) H3 designed Vlambda-Ckappa chimeric Fab, design 18 (E83F_D85T_T105E) (Fab, name in Kabat numbering, V domains shown) VH: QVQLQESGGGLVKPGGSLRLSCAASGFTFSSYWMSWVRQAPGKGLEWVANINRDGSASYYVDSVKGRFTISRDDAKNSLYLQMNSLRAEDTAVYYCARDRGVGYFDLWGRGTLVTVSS VL: QSALTQPASVSGSPGQSITISCTGTSSDVGGYNFVSWYQQHPGKAPKLMIYDVSDRPSGVSDRFSGSKSGNTASLIISGLQADDFATYYCSSYGSSSTHVIFGGGTKVEVLR = 90.5

Read the next record carefully.
Would you kindly share the measured Kd for H3 designed Vlambda-Ckappa chimeric Fab, design 22 (E83F_D85T_T105E_V106I_L106AK) (Fab, V domains shown) VH: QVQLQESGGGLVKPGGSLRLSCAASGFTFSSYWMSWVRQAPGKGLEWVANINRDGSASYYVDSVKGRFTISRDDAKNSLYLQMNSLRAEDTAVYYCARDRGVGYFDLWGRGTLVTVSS VL: QSALTQPASVSGSPGQSITISCTGTSSDVGGYNFVSWYQQHPGKAPKLMIYDVSDRPSGVSDRFSGSKSGNTASLIISGLQADDFATYYCSSYGSSSTHVIFGGGTKVEIKR ?
80.5

Source: patent US20200308270A1
